// provenance: patent US20040024024A1

Measured pIC50 by item
target: Human recombinant MMP-13 (Homo sapiens, UniProt P45452); construct: made in house; host or cells: baculovirus / insect cells; assay: In vitro MMP inhibition, IC50 determination (fluorogenic substrate I); type: biochemical; conditions: value outside parenthesis
Value format note: pIC50 is -log10 of concentration (mol/L); just state the number.

Known results for compounds:
compound: CCCc1ccc(-c2nc(CCCOc3ccc(S(=O)(=O)C4(C(=O)NO)CCOCC4)cc3)oc2C)cc1 [Example 207]
pIC50: 8.43

compound: COCCN1CCC(C(=O)NO)(S(=O)(=O)c2ccc(OCCCc3cccc(-c4ccc(F)cc4)c3)cc2)CC1 [Example 140]
pIC50: 9.30

compound: O=C(NO)C1(S(=O)(=O)c2ccc(OCCc3cccc(-c4ccc(Cl)cc4Cl)c3)cc2)CCOCC1 [Example 124]
pIC50: 7.66

Pending compound:
Ask: So what does the record say about pIC50 for O=C1CN(c2ccccc2)C(=O)N1CCCOc1ccc(S(=O)(=O)C2(C(=O)NO)CCOCC2)cc1 [Example 174] ?
Reply: 8.28

* * *

target: Human recombinant MMP-9 (Homo sapiens, UniProt P14780); construct: made in house; host or cells: MMP-9-transfected HT1080 cells (spent media); test: In vitro MMP inhibition, IC50 determination (fluorogenic substrate I); format: biochemical; conditions: value outside parenthesis
Sequence (P14780 107-707 limits assumed): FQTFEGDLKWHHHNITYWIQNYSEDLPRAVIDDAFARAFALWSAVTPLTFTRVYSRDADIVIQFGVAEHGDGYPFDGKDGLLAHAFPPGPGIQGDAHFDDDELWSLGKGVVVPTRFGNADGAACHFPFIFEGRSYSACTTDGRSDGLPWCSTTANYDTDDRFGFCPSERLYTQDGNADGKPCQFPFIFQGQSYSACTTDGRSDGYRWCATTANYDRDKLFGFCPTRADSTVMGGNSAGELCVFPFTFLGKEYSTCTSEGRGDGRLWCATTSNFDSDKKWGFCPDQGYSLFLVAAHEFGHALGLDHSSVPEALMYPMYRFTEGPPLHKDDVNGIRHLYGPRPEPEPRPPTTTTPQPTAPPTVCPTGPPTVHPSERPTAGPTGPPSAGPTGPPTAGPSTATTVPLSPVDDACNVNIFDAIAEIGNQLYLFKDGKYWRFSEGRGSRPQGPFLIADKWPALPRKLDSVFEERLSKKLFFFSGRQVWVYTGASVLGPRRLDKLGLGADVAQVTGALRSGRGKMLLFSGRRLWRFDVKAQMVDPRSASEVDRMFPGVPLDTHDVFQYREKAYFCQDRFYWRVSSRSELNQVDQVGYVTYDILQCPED
The label rule met is reserved for IC50 strictly under 700 nM; rule not met covers values equal to or above it.

Below, 5 compounds whose answers are already recorded.
compound: O=C(CCCc1ccc(S(=O)(=O)C2(C(=O)NO)CCOCC2)cc1)c1cccc(-c2ccccc2)c1 [Example 219]
target under test: Human recombinant MMP-9 (Homo sapiens, UniProt P14780)
discrete label: rule met
--
compound: O=C(NO)C1(S(=O)(=O)c2ccc(OCCCc3cccc(-c4cccc(F)c4)c3)cc2)CCOCC1 [Example 161]
target under test: Human recombinant MMP-9 (Homo sapiens, UniProt P14780)
discrete label: rule not met
--
compound: COc1ccc2sc(SCCCOc3ccc(S(=O)(=O)C4(C(=O)NO)CCOCC4)cc3)nc2c1 [Example 285]
target under test: Human recombinant MMP-9 (Homo sapiens, UniProt P14780)
discrete label: rule met
--
compound: COCCN1CCC(C(=O)NO)(S(=O)(=O)c2ccc(OCCCc3nnc(-c4ccccc4C(F)(F)F)o3)cc2)CC1 [Example 178]
target under test: Human recombinant MMP-9 (Homo sapiens, UniProt P14780)
discrete label: rule not met
--
compound: COc1ccc(C(=O)CCCCOc2ccc(S(=O)(=O)C3(C(=O)NO)CCN(C4CC4)CC3)cc2)cc1 [Example 277]
target under test: Human recombinant MMP-9 (Homo sapiens, UniProt P14780)
discrete label: rule met

Ask: IC50 under 700 nM? Item: COC(=O)CCCOc1ccc(S(=O)(=O)C2(C(=O)NO)CCOCC2)cc1 [Example 274]
Reply: rule met

Ask: Consider CC(C)c1ccc(C(=O)NNC(=O)CCCOc2ccc(S(=O)(=O)C3(C(=O)NO)CCOCC3)cc2)cc1 [Example 246] . Does its IC50 lie strictly below 700 nM?
Reply: rule met

Ask: Please indicate whether the reported IC50 of O=C(CCCOc1ccc(S(=O)(=O)C2(C(=O)NO)CCOCC2)cc1)Nc1cccc(OC(F)(F)F)c1 [Example 181] is strictly below 700 nM.
Reply: rule met

* * *

biological target: Human recombinant MMP-13 (Homo sapiens, UniProt P45452); construct: made in house; host or cells: baculovirus / insect cells; experiment: In vitro MMP inhibition, IC50 determination (fluorogenic substrate I); type: biochemical; conditions: value outside parentheses
Each record here notes measured IC50.
Give just the numeric value; nM need not be written.

compound: O=C(NCCOc1ccc(S(=O)(=O)C2(C(=O)NO)CCOCC2)cc1)c1ccc(-c2ccccc2)cc1
measurement units: nM
IC50: 3.3

Ask: Report IC50 for O=C(NO)C1(S(=O)(=O)c2ccc(OCCOCC3CCCCO3)cc2)CCOCC1 (stereo not shown) please.
Reply: 61

Ask: I'd like to know its IC50. The compound in question is O=C(NO)C1(S(=O)(=O)c2ccc(OCCCc3cccc(-c4ccc5c(c4)OCO5)c3)cc2)CCOCC1
Reply: 3.3

Ask: Entry under review: O=C(NO)C1(S(=O)(=O)c2ccc(OCCCc3cc(-c4ccc(OC(F)(F)F)cc4)cs3)cc2)CCOCC1 . Reported IC50?
Reply: 6.6

* * *

target: Human recombinant MMP-9 (Homo sapiens, UniProt P14780); construct: made in house; host or cells: MMP-9-transfected HT1080 cells (spent media); experiment: In vitro MMP inhibition, IC50 determination (fluorogenic substrate I); format: biochemical; details: value outside parenthesis
Let's look at some compounds and their measured pIC50.
Reminder that pIC50 is minus the log10 of a molar concentration.

Known pIC50 results, listed for orientation:
structure smiles string: CCN1CCC(C(=O)NO)(S(=O)(=O)c2ccc(OCCCc3cccc(-c4ccc(F)cc4)c3)cc2)CC1
value observed: 5.72
--
structure smiles string: CC(C)C(=O)c1cccc(CCCOc2ccc(S(=O)(=O)C3(C(=O)NO)CCOCC3)cc2)c1
value observed: 5.92
--
structure smiles string: COc1ccccc1-c1nnc(CCCOc2ccc(S(=O)(=O)C3(C(=O)NO)CCOCC3)cc2)o1
value observed: 5.83
--
structure smiles string: Cc1cccc(-c2nnc(CCCOc3ccc(S(=O)(=O)C4(C(=O)NO)CCOCC4)cc3)o2)c1
value observed: 5.71
--
structure smiles string: COCCN1CCC(C(=O)NO)(S(=O)(=O)c2ccc(OCCCn3nnc(-c4ccc(C(F)(F)F)cc4)n3)cc2)CC1
value observed: 5.95

// moving on: another record for pIC50
Ask: Need pIC50, item CN(C)c1ccc(C(=O)CCCCOc2ccc(S(=O)(=O)C3(C(=O)NO)CCN(C4CC4)CC3)cc2)cc1
Reply: 6.97

* * *

Ki overview
target: Human recombinant MMP-13 (Homo sapiens, UniProt P45452); construct: made in house; host or cells: baculovirus / insect cells; assay: In vitro MMP inhibition, Ki determination (fluorogenic substrate II); format: biochemical; details: value in parentheses
// note: answer is a bare numeric in nM

Here is how some molecules turned out for Ki.
molecule: O=C(NO)C1(S(=O)(=O)c2ccc(OCCOc3cncnc3)cc2)CCOCC1 [Example 554]
Ki (nM): 14.5
--
molecule: O=C(NO)C1(S(=O)(=O)c2ccc(OCCc3ccccn3)cc2)CCOCC1 [Example 556]
Ki (nM): 53.2
--
molecule: O=C(NO)C1(S(=O)(=O)c2ccc(OCCCc3nc(-c4cccnc4)no3)cc2)CCOCC1 [Example 578]
Ki (nM): 1.72
--
molecule: COCCN1CCC(C(=O)NO)(S(=O)(=O)c2ccc(OCCc3cccc(-c4ccncc4)c3)cc2)CC1 [Example 538]
Ki (nM): 0.184
--
molecule: Cc1ccc(-c2cccc(CCCOc3ccc(S(=O)(=O)C4(C(=O)NO)CCOCC4)cc3)c2)s1 [Example 639]
Ki (nM): 12.5

Ask: Give its Ki value. Item: COCCN1CCC(C(=O)NO)(S(=O)(=O)c2ccc(OCCc3cccc(-c4ccc(Cl)cc4)c3)cc2)CC1 [Example 547]
Reply: 2.28

Ask: Reported Ki for O=C(NO)C1(S(=O)(=O)c2ccc(OCCCc3cccc(-c4cc5ccccc5s4)c3)cc2)CCOCC1 [Example 633] : what is it?
Reply: 92.4

Ask: What does the record list as Ki for O=C(NO)C1(S(=O)(=O)c2ccc(OCCc3ccc(-c4ccc(O)cc4)cc3)cc2)CCOCC1 [Example 531] ?
Reply: 2.72

* * *

The entries below come with measured pIC50 values attached.
target: Human recombinant MMP-13 (Homo sapiens); construct: made in house; host or cells: baculovirus / insect cells; experiment: In vitro MMP inhibition, IC50 determination (fluorogenic substrate I); type: biochemical; details: value outside parenthesis
For clarity, pIC50 is expressed as the negative log10 of concentration in mol/L.

See these solved cases before continuing.
structure smiles string: O=C(NO)C1(S(=O)(=O)c2ccc(OCCSc3nc4cc(Cl)ccc4s3)cc2)CCOCC1
value observed: 8.89

structure smiles string: O=C(NO)C1(S(=O)(=O)c2ccc(OCCCc3cccc(Cc4ccccc4)c3)cc2)CCOCC1
value observed: 8.74

structure smiles string: O=C(CCCOc1ccc(S(=O)(=O)C2(C(=O)NO)CCOCC2)cc1)NNC(=O)c1ccc(Cl)cc1
value observed: 8.55

Ask: Which pIC50 value belongs to COC(=O)CCCOc1ccc(S(=O)(=O)C2(C(=O)NO)CCOCC2)cc1 ?
Reply: 8.39

* * *

Biological target: Human recombinant MMP-14 (Homo sapiens, UniProt P50281)
Construct: The catalytic domain enzyme was expressed in E. coli inclusion bodies, solubilized in urea; made in house
Test: In vitro MMP inhibition, IC50 determination (fluorogenic substrate I)
Assay type: biochemical
Details: value outside parentheses (Ki in parenthesis)
Experimental: Several hydroxamates and salts thereof were analyzed in in vitro assays to determine their ability to inhibit the MMP cleavage of peptide substrates. Inhibition (Ki) and IC50 constants were calculated from the assayed hydroxamate-MMP interactions. […] The assays from which the IC50 determinations were made were performed as follows. […] The assayed hydroxamate samples were, incubated in Microfluorrm White Plates (Dynatech, Chantilly, VA) and analyzed on a Perkin Elmer L550 plate reader (Norwalk, Conn.). […]
pIC50 reference
Scale for pIC50: -log10 of concentration given in mol/L; no unit attached.

compound: O=C(CCCOc1ccc(S(=O)(=O)C2(C(=O)NO)CCOCC2)cc1)Nc1ccccc1O [Example 350]
pIC50: 5.57

Continue with the next compound.
Ask: # lookup: pIC50 of O=C(NO)C1(S(=O)(=O)c2ccc(OC3CCOCC3)cc2)CCOCC1 [Example 480]
Reply: 5.85
